test: Therapeutic index, ratio of TD50 for human fibroblast cell to ID 50 for Toxoplasma gondii ATCC 50839; type: cell-based; settings: human fibroblast cells, read-out: TI
READOUT_LABEL: selectivity ratio

COMPOUND	MEASURED
COc1ccc2c(c1OC)C(C)N1CCc3cc4c(cc3C1=C2)OCO4 (stereo not given)	3
CCCCCCCOc1c(OC)ccc2cc3[n+](cc12)CCc1cc2c(cc1-3)OCO2	5.5
COc1ccc2cc3n(c(=O)c2c1OC)CCc1cc2c(cc1-3)OCO2 [OXYBERBERINE]	8
CCCCCC(=O)Oc1c(OC)ccc2cc3[n+](cc12)CCc1cc2c(cc1-3)OCO2	4000
COc1ccc2cc3[n+](cc2c1OC)CCc1cc2c(cc1-3)OCO2 [BERBERINE]	1.5

----------
assay: Cytotoxicity against human fibroblasts assessed as cell viability by microplate reader; type: cell-based, Fibroblast; conditions: read-out: TD50 (the source's name)
CC50 values by entry

COMPOUND	CC50
COc1cc(Cc2cnc(N)nc2N)cc(OC)c1OC	> 500 µM
COc1ccc2cc3[n+](cc2c1OC)CCc1cc2c(cc1-3)OCO2	0.85 µM
COc1ccc2c(c1OC)CN1CCc3cc4c(cc3C1=C2)OCO4 [DIHYDROBERBERINE]	41 µM
COc1ccc2cc3n(c(=O)c2c1OC)CCc1cc2c(cc1-3)OCO2	97 µM
CCCCCC(=O)Oc1c(OC)ccc2cc3[n+](cc12)CCc1cc2c(cc1-3)OCO2	145 µM
